Hi there, I'd appreciate the recorded IC50 for every entry that follows.
- assay system: T1, human PD-1 extracellular domain fused with mouse Fc (PD-1-mFc) (human, UniProt Q15116 25-170)
- T1 construct: extracellular domain; not used because of the label; also called hPD-1-mFc; human PD-1-mouse Fc fusion protein
- T1 sequence (Q15116 25-170): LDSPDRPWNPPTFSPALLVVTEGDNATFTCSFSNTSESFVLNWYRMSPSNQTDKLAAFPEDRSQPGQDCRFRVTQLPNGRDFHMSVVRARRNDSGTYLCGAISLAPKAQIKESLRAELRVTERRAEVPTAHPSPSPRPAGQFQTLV
- run description: blockage ELISA, competitor PDL-1-mFc-biotin (summary table; IC50 in ng/ml in Table 2)
Reply numerically in µg/mL, unit not repeated.

q: What does the record list as IC50 for 13F1 murine anti-PD-1 antibody (antibody, V domains shown, Purified hybridoma antibody; also called 13F1-mIgG1) VH: DVQLQESGPGLVKPSQSLSLTCTVTGYSITSDYAWNWIRQFPGNQLEWMAYISYSGYTSYNPSLKSRISITRDTSKNQFFLQLNSVTTEDTATYYCARSLDYDYGTMDYWGQGTSVTVSS VL: QIVLSQSPAILSASPGEKVTMTCRANSSVSSMHWYQQKPGSSPEPWIYAISNLAFGVPTRFSGSGSGTSYSLTISRVEAEDAATYFCQQWSSRPPTFGGGTKLEIKR ?
a: 0.701

q: What does the record list as IC50 for 7D3 murine anti-PD-1 antibody (antibody, V domains shown, Purified hybridoma antibody; also called 7D3-mIgG1) VH: EVKLVESGGGLVKPGGSLKLSCGASGFTFSSYGMSWVRQTPEKRLEWVATISGGGRDIYYPDSVKGRLTISRDNAKNNLYLQMSSLRSEDTALYYCVRQYYDDWFAYWGQGTLVTVSA VL: DIVLTQSPATLSVTPGDSVSLSCRASQSISNDLHWYQQKSHESPRLLIKYVSQSISGIPSRFSGSGSGTDFTLSINSVETEDFGMYFCQQSDSWPLTFGAGTKLELKR ?
a: 0.982

q: What does the record list as IC50 for 4C10 murine anti-PD-1 antibody (antibody, V domains shown, Purified hybridoma antibody; also called 4C10-mIgG1) VH: QVQLKQSGPGLVQPSQNLSVTCTVSGFSLTTYGVHWVRQSPGKGLEWLGVIWSGGSTDYNAAFISRLTISKDNARSQVFFKMNSLQVNDTAMYYCAREKSVYGNYVGAMDYWGQGTSVTVSS VL: SIVMTQTPKFLLVSAGDRVTITCKASQSVSDDVAWYQQKPGQSPKLLIYYAFNRYTGVPDRFTGSGYGTDFTFTISTVQSEDLAVYFCQQDYRSPWTFGGGTKLEIKR ?
a: 1.46
